tested on: H-EMC-SS; assay: cells; assay type: functional, cell-based, Homo sapiens; details: Homo sapiens, H-EMC-SS
Description: SANGER: Inhibition of human H-EMC-SS cell growth in a cell viability assay.
property-measured: IC50

Reference set (2 entries):
compound="CCN(CC)CCCCNc1ncc2cc(-c3cc(OC)cc(OC)c3)c(NC(=O)NC(C)(C)C)nc2n1 [PD-173074]" target_of_assay=H-EMC-SS observed_measurement="0.347 µM"
compound="Cc1cn(-c2cc(NC(=O)c3ccc(C)c(Nc4nccc(-c5cccnc5)n4)c3)cc(C(F)(F)F)c2)cn1 [NILOTINIB]" target_of_assay=H-EMC-SS observed_measurement="> 2 µM"

[Q] Which IC50 is listed for CS(=O)(=O)c1ccc(C(=O)Nc2ccc(Cl)c(-c3ccccn3)c2)c(Cl)c1 [VISMODEGIB] ?
[A] > 10 µM
